target: Ferrochelatase, mitochondrial (Homo sapiens) (UniProt P22830); conditions: at 10 µM
Sequence (P22830 whole entry): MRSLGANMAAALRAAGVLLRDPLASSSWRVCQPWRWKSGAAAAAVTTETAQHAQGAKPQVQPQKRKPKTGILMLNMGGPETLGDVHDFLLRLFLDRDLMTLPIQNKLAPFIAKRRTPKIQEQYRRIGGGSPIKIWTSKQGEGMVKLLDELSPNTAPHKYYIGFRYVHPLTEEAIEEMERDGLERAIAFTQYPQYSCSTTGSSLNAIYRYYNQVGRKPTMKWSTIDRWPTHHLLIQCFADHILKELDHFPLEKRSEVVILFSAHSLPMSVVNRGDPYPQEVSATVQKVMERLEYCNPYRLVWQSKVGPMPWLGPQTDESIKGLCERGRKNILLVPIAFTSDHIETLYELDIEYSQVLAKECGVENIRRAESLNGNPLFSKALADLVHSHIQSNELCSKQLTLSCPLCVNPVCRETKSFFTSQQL
Description: Compound was evaluated for the inhibition of human FECH at 10uM
Active and inactive are the calls of the source. No rule for the calls is given here.
Property: inhibition

Take a look at these entries with their results.
Molecule	Data Value
COc1ccc(Cn2cnc3c(-c4ccco4)nc(Cl)nc32)cc1	inactive
N=C(N)Nc1ccc(-c2ccc(-c3ccc(N=C(N)N)c(Cl)c3)o2)cc1Cl	inactive
COc1cc(C(F)(F)F)nc2ccc(C)c(N)c12	inactive
NCC(=O)N1CCn2c(nc(-c3ccccc3)c2Nc2ccc3c(c2)OCO3)C1	inactive
O=C(NCc1ccco1)N1CCN(Cc2ccc(Cl)s2)CC1	inactive
CO/C=C(/C(=O)OC)c1ccccc1Oc1cc(Oc2ccccc2C#N)ncn1	inactive
CCC(Sc1nc2ccccc2o1)C(=O)Nc1nccs1 (stereo unspecified)	inactive
Cc1ccc(C(=O)Nc2ccc(S(=O)(=O)O)c3cc(S(=O)(=O)O)cc(S(=O)(=O)O)c23)cc1NC(=O)c1cccc(NC(=O)Nc2cccc(C(=O)Nc3cc(C(=O)Nc4ccc(S(=O)(=O)O)c5cc(S(=O)(=O)O)cc(S(=O)(=O)O)c45)ccc3C)c2)c1	inactive

// NCCCC(N)(C(=O)O)C(F)F (stereo unspecified) : inhibition value = inactive

// CC(=O)Nc1ccc(NC(=O)c2cc(-c3cc(Cl)ccc3O)n[nH]2)cc1 : inhibition value = inactive

// Cc1ccc(Oc2ccc(NC(=O)CNc3ccccc3N3CCCC3=O)cc2)cc1 : inhibition value = inactive

// COc1ccc(C(=N)N)cc1-c1cn(-c2ccc(C(=N)N)cc2)nn1 : inhibition value = inactive

// CN(C)c1cc(NC(=O)Nc2ccccc2)c2ccccc2n1 : inhibition value = inactive

// O=S(=O)(c1ccc(Cl)cc1)N1CCN(C(=S)NCc2ccco2)CC1 : inhibition value = inactive

---

molecular target: Ferrochelatase, mitochondrial (Homo sapiens) (UniProt P22830); conditions: at 10 µM
Activity calls are given as the source filed them. How the calls were made is not given here.
Property: inhibition

Take a look at these entries with their results.
Molecule	Tested Target	Data Value
Cc1cc(NCC(C)C)c2[nH]nc(-c3ccccc3)c2n1	Ferrochelatase, mitochondrial (Homo sapiens) (UniProt P22830)	inactive
CC(=O)NCC1CN(c2ccc(-c3ccc(CNCc4cn[nH]n4)cc3)c(F)c2)C(=O)O1 (stereo unspecified)	Ferrochelatase, mitochondrial (Homo sapiens) (UniProt P22830)	inactive
COc1ccc(C2=NCCN2)cc1-c1cn(-c2cccc(C3=NCCN3)c2)nn1	Ferrochelatase, mitochondrial (Homo sapiens) (UniProt P22830)	inactive
CCOC(=O)c1cc(-c2csc(Nc3c(C)cc(C)cc3C)n2)on1	Ferrochelatase, mitochondrial (Homo sapiens) (UniProt P22830)	inactive
O=C(c1cc2ccccc2o1)N1CCN(Cc2ccc3c(c2)OCO3)CC1	Ferrochelatase, mitochondrial (Homo sapiens) (UniProt P22830)	inactive

Please look at the following molecule next.
// Cc1cc(O)nc(-n2nc(C)cc2C)n1 : inhibition value = inactive

---

Biological target: Porphobilinogen deaminase (Homo sapiens) (UniProt P08397)
Sequence (whole entry): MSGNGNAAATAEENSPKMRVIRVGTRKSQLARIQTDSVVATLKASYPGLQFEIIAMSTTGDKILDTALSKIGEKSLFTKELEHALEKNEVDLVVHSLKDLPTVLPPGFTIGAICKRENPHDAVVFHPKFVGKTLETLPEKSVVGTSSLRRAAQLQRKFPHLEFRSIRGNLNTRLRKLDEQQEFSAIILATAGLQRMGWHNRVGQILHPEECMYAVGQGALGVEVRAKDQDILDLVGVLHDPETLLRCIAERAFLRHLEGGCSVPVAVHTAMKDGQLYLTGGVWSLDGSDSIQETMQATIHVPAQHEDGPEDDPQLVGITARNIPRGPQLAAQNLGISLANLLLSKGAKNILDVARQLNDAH
Conditions: at 100 µM
Description: Compound was evaluated for the inhibition of human HMBS at 100uM
Activity calls are given as the source filed them. How the calls were made is not given here.
Property: inhibition

Take a look at these entries with their results.
Compound	inhibition
O=C(Nc1ccnc(-c2cccnc2)n1)c1cc(C(F)(F)F)cc(C(F)(F)F)c1	inactive
CNC(=O)CNc1nc(-c2ccccn2)nc2scc(-c3ccccc3)c12	inactive
Cc1ccc(C(=O)Nc2ccc(S(=O)(=O)O)c3cc(S(=O)(=O)O)cc(S(=O)(=O)O)c23)cc1NC(=O)c1cccc(NC(=O)Nc2cccc(C(=O)Nc3cc(C(=O)Nc4ccc(S(=O)(=O)O)c5cc(S(=O)(=O)O)cc(S(=O)(=O)O)c45)ccc3C)c2)c1	inactive
CCOc1ccc(-c2nc(NC(=O)CS(=O)(=O)c3ccccc3)sc2C)cc1	inactive
c1ccc2c(c1)CN(CC1CC1)CC1(CCN(Cc3c[nH]c4cnccc34)CC1)O2	inactive

Record for O=C(NCc1ccco1)N1CCN(Cc2ccc(Cl)s2)CC1 under target or system Porphobilinogen deaminase (Homo sapiens) (UniProt P08397): inhibition reported as inactive

Record for COc1ccc(-c2cnc3cnc(-c4cccc(OC(C)C)c4)cn23)cc1 under target or system Porphobilinogen deaminase (Homo sapiens) (UniProt P08397): inhibition reported as inactive

Record for O=C(NC1CC1)c1ccc(N2CCC(Cc3ccccc3)CC2)nc1 under target or system Porphobilinogen deaminase (Homo sapiens) (UniProt P08397): inhibition reported as inactive

Record for COc1ccc(C2CC(c3cccs3)=NN2C(=O)c2ccco2)cc1OC (centres undefined) under target or system Porphobilinogen deaminase (Homo sapiens) (UniProt P08397): inhibition reported as inactive
